// reported GI50 for each item listed
system: SNB-75; experiment: NCI tumour cell line growth inhibition, 48 h
Calls of active or inactive are those of the source. Rule as the data show it: active = GI50 up to about 1.1 µM and inactive = higher.

[[record]]
molecule = "CC(C)CC(NC(O)[BH2-][N+](C)(C)C)C(=O)NC(Cc1ccccc1)C(=O)N[C@H]1c2ccsc2/C(=N/O)[C@H]1O (some centres undefined)"
study_target = "SNB-75"
endpoint_label = "GI50"
val = "> 100 µM (inactive)"

[[record]]
molecule = "O=c1c2cc(S(=O)(=O)O)ccc2nc(COc2ccc(Oc3ccc(Cl)cc3Cl)cc2)n1-c1ccc(Oc2ccc(Cl)cc2)cc1Cl"
study_target = "SNB-75"
endpoint_label = "GI50"
val = "22.6 µM (inactive)"

[[record]]
molecule = "CC1=C(O)C(O)=C(C2=C(O)C(O)=C(C)C(=O)C2=O)C(=O)C1=O"
study_target = "SNB-75"
endpoint_label = "GI50"
val = "76.2 µM (inactive)"


Attention now turns to another entry.
Problem: So what does the record say about GI50 for C/C(=N\c1ccc(N(C)C)cc1)c1ccccc1 ?
Solution: 22.8 µM (inactive)
